# run description: qHTS Assay for Rab9 Promoter Activators; further: nearly all actives have a fitted effect of over 60% in size; further: potency means the concentration at half of the fitted maximal effect
# experimental setup: Huh7 Rab9 promoter-luciferase reporter, luminescence, 24 h; series mostly up to 9.22 µM
The campaign covered roughly 320,000 compounds. About 9,100 (2.8%) were called active. Roughly 3% stayed inconclusive and do not appear here. The sample as a whole holds a higher share of actives than the screen did.

item smiles: CN1CCN(C(=O)c2cnn(-c3ccccc3)c2NC(=O)c2ccc([N+](=O)[O-])cc2)CC1
Potency: inactive

item smiles: Cc1ccc(CSc2ccc(S(=O)(=O)N3CCCCC3)cn2)cc1
Potency: inactive

item smiles: COc1cc(C(=O)NNC(=O)CN2C(=O)NC3(CCCC3)C2=O)cc(OC)c1OC
Potency: inactive

item smiles: CCOc1cccc2cc(C(=O)OCC(=O)Nc3c(C)cccc3CC)c(=O)oc12
Potency: inactive

item smiles: COc1cccc(NC(=O)CSc2nnc(-c3cccnc3)o2)c1
Potency: inactive

item smiles: COc1ccc2oc(-c3cccc(NC(=O)CSc4ccc(Cl)cc4)c3)nc2c1
Potency: 3.55 µM (active)

item smiles: COc1cccc(-c2nnc(SCCOc3ccc4c(C)cc(=O)oc4c3)o2)c1
Potency: inactive

item smiles: COc1cccc(-c2nc3cc(C)ccc3o2)c1
Potency: 3.98 µM (active)

item smiles: CC(=O)Oc1ccc2c(=O)oc(-c3ccc([N+](=O)[O-])cc3)nc2c1
Potency: inactive

item smiles: Cc1ccc(-c2nnc(-n3nnc4ccccc43)c3ccccc23)cc1
Potency: inactive

###

# run description: qHTS Assay for Rab9 Promoter Activators; further: nearly all actives have a fitted effect of over 60% in size
# experimental setup: Huh7 Rab9 promoter-luciferase reporter, luminescence, 24 h; series mostly up to 9.22 µM
About 9,100 (2.8%) of roughly 320,000 compounds were called active. Inconclusive results (about 3%) are left out. Calls follow the shape of the dose curve; as a rule, active = well fitted activation curve with a large enough effect; inconclusive = small, poorly fitted or top-dose-only effect; inactive = no such curve, though single readings can be large or run the other way. The sample as a whole holds a higher share of actives than the screen did.
Outcome codes: active, inactive

molecule: O=C1c2cccc3c([N+](=O)[O-])ccc(c23)C(=O)N1CC1CCCO1 (stereo unspecified)
assigned class: inactive
--
molecule: Cc1nc2cc(-c3ccc(F)cc3)nn2c(N2CCOCC2)c1C
assigned class: inactive
--
molecule: COc1ccc(NS(=O)(=O)c2ccc(C)c(C(=O)NCC(c3cccs3)N3CCOCC3)c2)cc1 (stereo unspecified)
assigned class: inactive
--
molecule: CC1(NC(=O)CCS(=O)(=O)c2ccc(Cl)cc2)CCS(=O)(=O)C1 (stereo unspecified)
assigned class: inactive
--
molecule: CCN(C(=O)CSc1ncnc2sccc12)c1c(N)n(Cc2ccccc2)c(=O)[nH]c1=O
assigned class: inactive
--
molecule: O=C(NNc1ccccn1)c1ccc(Cl)nc1
assigned class: inactive
--
molecule: O=C1C(C=NCC2CCCO2)=C(O)c2ccccc21 (stereo unspecified)
assigned class: active
--
molecule: Cc1ccc(OCCC(=O)Nc2ccc(S(=O)(=O)Nc3nccs3)cc2)cc1
assigned class: inactive
--
molecule: Cc1cc(C(C)(C)C)n2nc(C)c(-c3ccccc3)c2n1
assigned class: inactive
--
molecule: Cc1cc(N)n2nc(-c3ccc(C(C)(C)C)cc3)cc2n1
assigned class: active
--
molecule: O=C1c2cccc(OCC(=O)N3N=C(c4cccs4)CC3c3ccc(F)cc3)c2CCN1Cc1ccccc1 (stereo unspecified)
assigned class: inactive

###

# run description: qHTS Assay for Rab9 Promoter Activators; further: nearly all actives have a fitted effect of over 60% in size
# experimental setup: Huh7 Rab9 promoter-luciferase reporter, luminescence, 24 h; series mostly up to 9.22 µM
In all, about 320,000 compounds went through this assay and about 9,100 (2.8%) were called active. About 3% were inconclusive and are not listed. The call rests on the fitted dose curve; in most records, active means well fitted activation curve with a large enough effect; inconclusive means small, poorly fitted or top-dose-only effect; inactive means no such curve, though single readings can be large or run the other way. What follows is part of a selection rich in actives, with near analogues and random picks from the rest.
Outcomes: active, inactive

molecule: CN(Cc1cccnc1)C(=O)c1cc(COc2ccc3ncccc3c2)on1
assigned class: inactive

molecule: CCOc1ccc(S(=O)(=O)N2CCCCC2)cc1NC(=O)CN1CCCC1c1cccs1 (stereo not given)
assigned class: inactive

molecule: NC(=O)c1cc2ccccc2o/c1=N/NC(=O)c1cccc(F)c1
assigned class: inactive

molecule: Cc1ccsc1C(=O)OCC(=O)Nc1cccc(F)c1
assigned class: inactive

molecule: O=C(Nc1cccnc1)c1cc(Cl)ccc1Cl
assigned class: inactive

molecule: CN(CCN1CCOCC1)Cc1nc(-c2ccc3c(c2)OCO3)no1
assigned class: inactive

molecule: CN(C)c1cc2c(Nc3ccc4c(cnn4Cc4ccccc4)c3)ncnc2cn1
assigned class: inactive

molecule: Cc1cc(NC(=O)COc2ccc([N+](=O)[O-])cc2)no1
assigned class: inactive

molecule: COCC1CCCN(Cc2nc(-c3ccc4c(c3)OCO4)no2)C1 (stereo not given)
assigned class: active

molecule: c1c2c(cc3sc(N4CCCCC4)nc13)OCCO2
assigned class: active

molecule: Cc1ccc(C)c(C(=O)COC(=O)Cn2[nH]c(=O)c3ccccc3c2=O)c1
assigned class: inactive

molecule: CCC(=O)Nc1ccc(C(=O)Nc2cc(C)on2)cc1
assigned class: inactive

molecule: Cc1cc(NC(=O)COc2ccccc2C#N)no1
assigned class: active

molecule: CCCCN(C(=O)C1=NN(c2cc(C)ccc2C)C(=O)CC1)c1c(N)n(CCC)c(=O)[nH]c1=O
assigned class: inactive

molecule: Cc1nc(N2CCCCC2)sc1C=O
assigned class: inactive

molecule: O=C(CCc1ccccc1Cl)Nc1ccc(S(=O)(=O)Nc2nccs2)cc1
assigned class: inactive

molecule: CCOc1ccccc1NC(=O)Cc1cccs1
assigned class: inactive

molecule: O=C(COc1ccccc1Cl)N1N=C(c2cccs2)CC1c1ccco1 (stereo not given)
assigned class: inactive

molecule: Cc1ccc2cc(/C=N/Nc3ccc(C(=O)O)cc3)c(Cl)nc2c1
assigned class: active

molecule: CC(C)N(Cc1nc(-c2ccc3c(c2)OCO3)no1)CC1CCC(=O)N1 (stereo not given)
assigned class: inactive

molecule: CC(C)Cn1c(N)c(C(=O)COC(=O)C2CCCN2C(=O)c2cccs2)c(=O)n(C)c1=O (stereo not given)
assigned class: inactive

molecule: O=C(Nc1cccnc1)c1cccc(S(=O)(=O)N2CCCC2)c1
assigned class: inactive

molecule: CCN(CC(=O)Nc1ccc(OC)cc1)C(=O)c1ccc(Cl)c(S(=O)(=O)N2CCCC2)c1
assigned class: inactive

molecule: CN(Cc1cnccn1)C(=O)c1cc(COc2cccc(C(F)(F)F)c2)on1
assigned class: inactive

molecule: O=C(CN1CCN(c2ccccc2O)CC1)NC(=O)NCc1ccccc1
assigned class: inactive

molecule: O=[N+]([O-])c1cc(S(=O)(=O)NCCc2ccccn2)ccc1Cl
assigned class: inactive

molecule: O=C(Nc1cccnc1)c1noc2c1CCCCC2
assigned class: active

molecule: Cc1cc(NC(=O)COn2nnc3ccccc32)no1
assigned class: inactive

molecule: COc1ccccc1C(=O)NCC(=O)NCCSc1ccc(Br)cc1
assigned class: inactive

molecule: CCN(CC)S(=O)(=O)c1ccc(CNC(=O)CN2C(=O)NC3(CCc4ccccc43)C2=O)cc1 (stereo not given)
assigned class: inactive

molecule: CC(=O)c1c(C)[nH]c(C(=O)Nc2cc(S(=O)(=O)N(C)C)ccc2C)c1C
assigned class: inactive

molecule: CCCc1ccc(C(=O)COC(=O)CN2C(=O)NC3(CCCCC3C)C2=O)cc1 (stereo not given)
assigned class: inactive

molecule: O=C(NCC1CCCO1)c1ccc(S(=O)(=O)Nc2ccc(F)cc2)cc1 (stereo not given)
assigned class: inactive

molecule: CC(=O)C[C@@H](O)CC(=O)[C@H]1OC(=O)CCCCCCc2ccccc21
assigned class: inactive

molecule: O=C(CCNC(=O)c1ccc(Cl)cc1)NC1CCCc2ccccc21 (stereo not given)
assigned class: inactive

molecule: COCCN(Cc1ccccc1)C(=O)Cc1ccc(S(=O)(=O)N2CCOCC2)s1
assigned class: inactive

molecule: CCOc1ccc(C(=O)Nc2ccc(S(=O)(=O)Nc3cc(C)on3)cc2)cc1
assigned class: inactive

molecule: O=S(=O)(Nc1ccc(-n2cnnn2)cc1)c1ccc(Cl)cc1
assigned class: inactive

molecule: Cc1cc(CN(C)C(=O)c2cc(COc3ccc(C)c(C)c3)on2)n[nH]1
assigned class: active

molecule: CCOc1ccc(NC(=O)Nc2cc(C)on2)cc1
assigned class: active

molecule: Cc1cc(CO)nn1-c1ccc([N+](=O)[O-])cc1
assigned class: inactive

molecule: CSCCC(NC(=O)c1ccccc1)C(=O)N1CCN(Cc2ccc(Cl)cc2)CC1 (stereo not given)
assigned class: inactive

molecule: CN(C)/C=C(/C(=O)c1ccc(Cl)c(Cl)c1)c1nnnn1-c1ccccc1
assigned class: inactive

molecule: O=C(CNC(=O)OCc1ccccc1)NC1CCCCNC1=O (stereo not given)
assigned class: inactive

molecule: COc1cccc(N2CCN(CC(=O)Nc3ccnn3C3CCCC3)CC2)c1
assigned class: inactive

Values were extracted from PubChem BioAssay AID485297.
